system: DU-145; assay: Cytotoxicity against human DU145 cells incubated for 72 hrs by sulforhodamine B assay; assay type: functional, cell-based; conditions: DU-145, 72 h
The following compounds are listed with their measured IC50 values.
measured-property: IC50 (µM)

1) Ic1ccc(OCCCCn2ccnc2)cc1; 54.9
2) c1ccc2sc(SCCCn3ccnc3)nc2c1; 54.8
3) c1ccc2sc(SCCCCn3ccnc3)nc2c1; 82.2
4) Ic1ccc(OCCCCCn2ccnc2)cc1; 27.7
5) Brc1cccc(OCCCCn2ccnc2)c1; 46.6

====

test system: MDA-MB-231; experiment: Cytotoxicity against human MDA-MB-231 cells incubated for 72 hrs by sulforhodamine B assay; assay type: functional, cell-based; conditions: MDA-MB-231, 72 h
measured-property: IC50 (µM)

1) Brc1cccc(OCCCCn2ccnc2)c1; 27.5
2) c1ccc2sc(SCCCn3ccnc3)nc2c1; 55.1
3) Ic1ccc(OCCCCn2ccnc2)cc1; 55.1
4) c1ccc2sc(SCCCCn3ccnc3)nc2c1; 55.1
5) Ic1ccc(OCCCCCn2ccnc2)cc1; 27.4

====

target: Heme oxygenase 1 (Rattus norvegicus, UniProt P06762)
Sequence (P06762 whole entry): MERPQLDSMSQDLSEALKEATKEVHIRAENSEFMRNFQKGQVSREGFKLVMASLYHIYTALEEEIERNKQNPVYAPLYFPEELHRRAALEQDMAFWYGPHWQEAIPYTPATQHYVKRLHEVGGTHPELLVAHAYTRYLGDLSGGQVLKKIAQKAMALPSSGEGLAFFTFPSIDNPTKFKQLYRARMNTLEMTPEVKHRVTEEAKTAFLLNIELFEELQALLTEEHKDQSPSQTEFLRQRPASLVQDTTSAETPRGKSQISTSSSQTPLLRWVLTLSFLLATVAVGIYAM
pIC50: −log10 of the molar value.
The following compounds are listed with their measured pIC50 values.
measured-property: pIC50

1) Brc1cccc(OCCCCCCn2ccnc2)c1; 4.47
2) Brc1cccc(OCCCCCn2cncn2)c1; 4.70
3) c1ccc2sc(SCCCCCn3ccnc3)nc2c1; 4.40
4) Ic1ccc(OCCCCCn2ccnc2)cc1; 4.36
5) Ic1ccc(OCCCCCCn2ccnc2)cc1; 4.38
6) Clc1ccc2sc(SCCCCCn3ccnc3)nc2c1; 4.44
7) c1ccc2sc(SCCCn3ccnc3)nc2c1; 6.05
8) Clc1ccc2sc(SCCCn3ccnc3)nc2c1; 4.74

====

tested on: LNCaP; test: Cytotoxicity against human LNCAP cells incubated for 72 hrs by sulforhodamine B assay; type: functional, cell-based
pIC50: −log10 of the molar value.
measured-property: pIC50

1. Ic1ccc(OCCCCCn2ccnc2)cc1; 4.56
2. c1ccc2sc(SCCCn3ccnc3)nc2c1; 4.26
3. c1ccc2sc(SCCCCn3ccnc3)nc2c1; 4.26
4. Ic1ccc(OCCCCn2ccnc2)cc1; 4.77
5. Brc1cccc(OCCCCn2ccnc2)c1; 4.56

====

pIC50: −log10 of the molar value.
// pIC50 collected for Heme oxygenase 2 (Rattus norvegicus, UniProt P23711)
measured-property: pIC50

1) Clc1ccc2sc(SCCCCn3ccnc3)nc2c1; 6.05
2) O=[N+]([O-])c1ccc(OCCCCn2cncn2)cc1; 4.38
3) Ic1ccc(OCCCn2ccnc2)cc1; 4.44
4) c1ccc2oc(SCCCn3ccnc3)nc2c1; 4.31
5) Clc1ccc2sc(SCCCCCn3ccnc3)nc2c1; 6.05
6) Brc1cccc(OCCCCn2cncn2)c1; 4.95
7) Brc1cccc(OCCCCCn2ccnc2)c1; 6.05
8) O=[N+]([O-])c1ccc(OCCCn2cncn2)cc1; 4.35
9) Brc1cccc(OCCCn2cncn2)c1; 4.47
10) Ic1ccc(OCCCCCn2ccnc2)cc1; 6.05
11) Brc1cccc(OCCCCCn2cncn2)c1; 6.10
